// data source = paper PMC12892976

System: Aspergillus fumigatus
Assay: checkerboard drug interaction (FICI, MICc);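 note: simplified diagonal checkerboard screen pairing antifungals with FPPS inhibitors against Aspergillus fumigatus, with FICI calculated under the Loewe additivity model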
Format: cell-based
Conditions: Fractional Inhibitory Concentration Index, ketoconazole + inhibitor
Output satisfied for FICI (KET:INH) not less than 2; output not satisfied otherwise.

Examples with answers:
CCCCCCCCCCCN1CCC[C@H]1C(=O)N[C@H](CC(=O)O)C(=O)O
not satisfied
CCCCCCCCCCCN1CCC[C@H]1C(=O)N[C@@H](CC(=O)OC)C(=O)OC
not satisfied
CCCCCCCCCCCCN1CCC[C@H]1C(=O)N[C@@H](CC(=O)OC)C(=O)OC
not satisfied

Answer whether FICI (KET:INH) of "CCCCCCCCCN1CCC[C@H]1C(=O)N[C@H](CC(=O)O)C(=O)O" is greater than or equal to 2.
not satisfied

Input "CCCCCCCCCCN1CCC[C@H]1C(=O)N[C@H](CC(=O)OC)C(=O)OC"
satisfied

Input "CCCCCCCCCCCN1CCC[C@H]1C(=O)N[C@H](CC(=O)OC)C(=O)OC"
satisfied

Input "CCCCCCCCCCCCN1CCC[C@H]1C(=O)N[C@H](CC(=O)O)C(=O)O"
not satisfied
